Ki for UniProtKB P07550 - collated from the literature.
// note: answer is a bare numeric in nM

COc1cc(CCNCCc2ccc(O)c(O)c2)ccc1OCCCc1ccccc1 ... 53
O=C(Nc1ccccc1-c1ccccc1)OC1CCN(CCCCCCCCCNC[C@H](O)c2ccc(O)c(CO)c2)CC1 ... 61
CNCC(O)COc1ccc(S(=O)(=O)NC(C)C)cc1.Cl (stereo not given) ... 31600

Task: Under UniProtKB P07550: Ki value of NCCOc1ccc(Nc2ccc(CCNC[C@H](O)c3ccc(O)c4[nH]c(=O)ccc34)cc2)cc1 ?
Output: 6.31

Task: Under UniProtKB P07550: Ki value of COc1ccc(Nc2ccc(CCNC[C@H](O)c3ccc(O)c4[nH]c(=O)ccc34)cc2)cc1-c1ccc(CN)cc1 ?
Output: 1.26

Task: Under UniProtKB P07550: Ki value of Cc1nc(-c2ccc(OCCNC[C@H](O)c3cccnc3)cc2)co1 ?
Output: 21

Task: Under UniProtKB P07550: Ki value of COc1ccccc1OCCNCCCc1ccc(O)c(O)c1 ?
Output: 920

Task: Under UniProtKB P07550: Ki value of OCc1cc(C(O)CNCCc2ccc(N3CCC(Cc4ccccc4)CC3)cc2)ccc1O (racemic) ?
Output: 15800
